TESTED_SYSTEM: human GLP-1 receptor (human, UniProt P43220 24-463)
PROCEDURE_SUMMARY: cell-based or functional assay
PROPERTY_MEASURED: GLP-1 receptor potency [EC50] pM 0% HSA

[[record]]
binder = "S{Beta-27}-[2-[2-[[2-[2-[2-[[2-[2-[2-[[(4S)-4-carboxy-4-(17-carboxyheptadecanoyl-amino)butanoyl]amino]ethoxy]ethoxy]acetyl]amino]ethoxy]ethoxy]acetyl]amino]-eth … (ligand, Cys27 of the GLP-1 part (GLP-1(7-37) numbering; residue 21 of the chain) and Cys180 of the FGF21 part (FGF21(1-181) numbering; residue 228 of the chain) each S-alkylated with substituent Chem. 7) HGEGTFTSDVSSYLEEQAARCFIAWLVKGGGGAQPGAQPGAQPGAQPAHPIPDSSPLLQFGGQVRQRYLYTDDAQQTEAHLEIREDGTVGGAADQSPESLLQLKALKPGVIQILGVKTSRFLCQRPDGALYGSLHFDPEACSFRELLLEDGYNVYQSEAHGLPLHLPGQKSPHRDPAPRGPARFLPLPGLPPALPEPPGILAPQPPDVGSSDPLSLVGPSQGRSPSYCS"
property_measured = "GLP-1 receptor potency [EC50] pM 0% HSA"
result = "11.4 pM"

[[record]]
binder = "S{Beta-26}-[2-[2-[[2-[2-[2-[[2-[2-[2-[[(4S)-4-carboxy-4-(17-carboxyheptadecanoyl-amino)butanoyl]amino]ethoxy]ethoxy]acetyl]amino]ethoxy]ethoxy]acetyl]amino]-eth … (ligand, Cys26 of the GLP-1 part (GLP-1(7-37) numbering; residue 20 of the chain) and Cys180 of the FGF21 part (FGF21(1-181) numbering; residue 228 of the chain) each S-alkylated with substituent Chem. 7) HGEGTFTSDVSSYLEEQAACEFIAWLVKGGGGAQPGAQPGAQPGAQPAHPIPDSSPLLQFGGQVRQRYLYTDDAQQTEAHLEIREDGTVGGAADQSPESLLQLKALKPGVIQILGVKTSRFLCQRPDGALYGSLHFDPEACSFRELLLEDGYNVYQSEAHGLPLHLPGQKSPHRDPAPRGPARFLPLPGLPPALPEPPGILAPQPPDVGSSDPLSLVGPSQGRSPSYCS"
property_measured = "GLP-1 receptor potency [EC50] pM 0% HSA"
result = "224 pM"

[[record]]
binder = "S{Beta-27}-[2-[2-[[2-[2-[2-[[2-[2-[2-[[(4S)-4-carboxy-4-(17-carboxyheptadecanoyl-amino)butanoyl]amino]ethoxy]ethoxy]acetyl]amino]ethoxy]ethoxy]acetyl]amino]-eth … (ligand, Cys27 of the GLP-1 part (GLP-1(7-37) numbering; residue 21 of the chain) S-alkylated with substituent Chem. 7) HGEGTFTSDVSSYLEEQAAKCFIAWLVKGGGGAQPGAQPGAQPGAQPAHPIPDSSPLLQFGGQVRQRYLYTDDAQQTEAHLEIREDGTVGGAADQSPESLLQLKALKPGVIQILGVKTSRFLCQRPDGALYGSLHFDPEACSFRELLLEDGYNVYQSEAHGLPLHLPGQKSPHRDPAPRGPARFLPLPGLPPALPEPPGILAPQPPDVGSSDPLSLVGGSQGRSPSYAS"
property_measured = "GLP-1 receptor potency [EC50] pM 0% HSA"
result = "16.9 pM"

[[record]]
binder = "S{Beta-27}-[2-[2-[[2-[2-[2-[[2-[2-[2-[[(4S)-4-carboxy-4-(17-carboxyheptadecanoyl-amino)butanoyl]amino]ethoxy]ethoxy]acetyl]amino]ethoxy]ethoxy]acetyl]amino]-eth … (ligand, Cys27 of the GLP-1 part (GLP-1(7-37) numbering; residue 21 of the chain) S-alkylated with substituent Chem. 7) HGEGTFTSDVSSYLEEQAAKCFIAWLVKGGGGAQPGAQPGAQPGAQPGAQPGAQPGAQPGAQPAHPIPDSSPLLQFGGQVRQRYLYTDDAQQTEAHLEIREDGTVGGAADQSPESLLQLKALKPGVIQILGVKTSRFLCQRPDGALYGSLHFDPEACSFRELLLEDGYNVYQSEAHGLPLHLPGQKSPHRDPAPRGPARFLPLPGLPPALPEPPGILAPQPPDVGSSDPLSLVGGSQGRSPSYES"
property_measured = "GLP-1 receptor potency [EC50] pM 0% HSA"
result = "9.8 pM"

[[record]]
binder = "S{Beta-36}-[2-[2-[[2-[2-[2-[[2-[2-[2-[[(4S)-4-carboxy-4-(17-carboxyheptadecanoyl-amino)butanoyl]amino]ethoxy]ethoxy]acetyl]amino]ethoxy]ethoxy]acetyl]amino]-eth … (ligand, Cys36 of the GLP-1 part (GLP-1(7-37) numbering; residue 30 of the chain) S-alkylated with substituent Chem. 7) HGEGTFTSDVSSYLEEQAAREFIAWLVKGCGGAQPGAQPGAQPGAQPAHPIPDSSPLLQFGGQVRQRYLYTDDAQQTEAHLEIREDGTVGGAADQSPESLLQLKALKPGVIQILGVKTSRFLCQRPDGALYGSLHFDPEACSFRELLLEDGYNVYQSEAHGLPLHLPGQKSPHRDPAPRGPARFLPLPGLPPALPEPPGILAPQPPDVGSSDPLSLVGGSQGRSPSYES"
property_measured = "GLP-1 receptor potency [EC50] pM 0% HSA"
result = "54.6 pM"

